For each record, write down the corresponding %Inh.
system: TSSK1B; conditions: concentration: 1 μM,replicates: in singlicate; n = 1;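 note: KINOMEscan kinase panel screen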
Write it as a number; the unit % goes unstated.

Quick one: %Inh for CNC(=O)c1ccccc1Nc1nc(Nc2cccc(CS(C)(=O)=O)c2)ncc1C.O=CO [GSK1520489] ?
9

Requested field: %Inh. Item: COC(=O)Nc1nc2cc(Oc3ccc(NC(=O)Nc4cc(C(F)(F)F)ccc4Cl)cc3)ccc2[nH]1.Cl [GW697465]
0

Bench note: what %Inh did COC(=O)c1cccc(NC(=O)NC2CCN(c3ccnc(NCc4ccc(F)cc4)n3)CC2)c1 [GSK1379860] show?
0

Returns the measured %Inh for the input compound. Input: CCOC(=O)N1CCC(n2cnc(-c3ccc(F)cc3)c2-c2ccnc(N)n2)CC1 [SB-219952]
0

====

tested on: TRKC; construct: gene NTRK3; details: concentration: 1 μM,replicates: in singlicate; n = 1
Provide the recorded %Inh for the entries that follow.
Output spec: scalar in %, unitless text.

Which %Inh value is on record for `Cc1ccn2nc(-c3ccc(F)cc3)c(-c3ccncc3)c2c1.Cl` ?
24

// lookup %Inh for `O=C(Nc1n[nH]c2cc(-c3ccco3)ccc12)C1CC1`
32

Can you look up the measured %Inh of `C[C@@H]1CNc2c(sc3ccc4nc(-c5ccc(O)cc5)ccc4c23)C(=O)N1` for me?
0

Which %Inh is reported for this compound? `COC(=O)c1cccc(NC(=O)NC2CCN(c3ccnc(NCc4ccc(F)cc4)n3)CC2)c1`
24

Quick one: %Inh of `O=C(Nc1ccc(Oc2ccc3nc(NC(=O)C4CC4)cn3n2)c(F)c1)c1cccn(-c2ccccc2)c1=O` ?
20

Please give the measured %Inh for this compound: `CN(c1cccc(CNc2nc(Nc3ccc4c(c3)CC(=O)N4)ncc2C(F)(F)F)c1)S(C)(=O)=O`
79

====

test system: JAK3(JH1domain-catalytic); conditions: concentration: 1 μM,replicates: in singlicate; n = 1
recorded-metric: %Inh (%)
Field: numeric (%). Do not append units.

For the compound `NC(=O)Nc1sc(-c2ccc(F)cc2)cc1C(N)=O` , what %Inh is on record?
96.1

# %Inh lookup, item COC(=O)c1cccc(NC(=O)NC2CCN(c3ccnc(Nc4cc(OC)c(OC)c(OC)c4)n3)C2)c1 (stereo not drawn)
0

Given the entry `CN(c1cccc(CNc2nc(Nc3ccc4c(c3)CC(=O)N4)ncc2C(F)(F)F)c1)S(C)(=O)=O` , report its measured %Inh.
100

Entry `CCOC(=O)N1CCC(n2cnc(-c3ccc(F)cc3)c2-c2ccnc(N)n2)CC1` : reported %Inh = ?
0

Which value of %Inh has been reported for `Cl.Nc1n[nH]c2cc(-c3ccccn3)ccc12` in the records?
0

Report %Inh for `CNC(=O)c1ccccc1Nc1nc(Nc2cccc(CS(C)(=O)=O)c2)ncc1C.O=CO` please.
99.9

Any idea what its %Inh is? The compound is `COC(=O)c1cccc(NC(=O)NC2CCN(c3ccnc(NCc4ccc(F)cc4)n3)CC2)c1`
0

Which %Inh is reported for this compound? `COc1cccc(OC)c1C(=O)Nc1cccc(-c2nn3ccccc3c2-c2ccnc(Nc3cccc(F)c3)n2)c1`
0

Returns the measured %Inh for the input compound. Input: `O=C(Nc1ccccc1)c1cccc(Oc2ccc3nccn3n2)c1`
6

// %Inh lookup, key: `Cn1cc(-c2cccc3c(N)c(C(N)=O)nnc23)cn1`
38

So what does the record say about %Inh for `Cn1ccc2ncnc(Oc3ccc(NC(=O)Nc4cncc(C(F)(F)F)c4)c(Cl)c3)c21` ?
0

Find the recorded %Inh belonging to `Cc1ccn2nc(-c3ccc(F)cc3)c(-c3ccncc3)c2c1.Cl` and report it.
0

Request the reported %Inh associated with `O=C(NCC1CC1)c1ccc(-c2cc(C(=O)NC3CC3)ccc2F)cc1`
0

Which %Inh reading was recorded for the compound `C[C@@H](Oc1cc(-n2cnc3cc(-c4ccncc4)ccc32)sc1C(N)=O)c1ccccc1Cl` ?
48

Return reported %Inh; argument: `c1ccc(Oc2ccc(Nc3ccnc4ccc(-c5ccccn5)cc34)cc2)cc1`
0

Bench note: what %Inh did CC(C(=O)NC1CCN(c2ccnc(Nc3ccc(F)cc3)n2)C1)c1ccc(Cl)cc1 (stereo not drawn) show?
0

Consider the compound shown here: `CCN1CCN(CCCC(=O)Nc2n[nH]c3nc(-c4ccc(O)cc4)c(Br)cc23)CC1` What is its recorded %Inh?
87

GET /values?readout=%Inh&item= `COc1cc2nccc(Nc3ccc(Oc4ccccc4)cc3)c2cc1OC.Cl`
0
